Cited source for all entries: ChEMBL document CHEMBL1149644

- measurement.target: Substance-K receptor (Cavia porcellus)
- Sequence (Q64077 whole entry): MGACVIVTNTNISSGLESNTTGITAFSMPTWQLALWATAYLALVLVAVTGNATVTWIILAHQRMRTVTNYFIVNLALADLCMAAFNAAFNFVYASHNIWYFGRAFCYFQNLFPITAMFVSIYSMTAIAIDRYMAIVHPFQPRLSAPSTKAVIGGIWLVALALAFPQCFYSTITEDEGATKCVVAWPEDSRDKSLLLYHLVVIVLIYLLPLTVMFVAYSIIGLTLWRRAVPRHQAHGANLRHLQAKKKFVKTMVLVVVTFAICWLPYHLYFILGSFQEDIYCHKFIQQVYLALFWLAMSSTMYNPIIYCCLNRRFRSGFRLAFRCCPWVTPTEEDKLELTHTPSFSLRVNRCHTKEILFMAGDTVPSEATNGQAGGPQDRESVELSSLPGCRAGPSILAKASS
- experimental.protocol: […] activity at NK2 receptor in guinea pig smooth muscle
pKi: −log10 of the molar value.
readout.name: pKi

molecule | measurement.target | pKi
CC1CCCCN1CCCNC(=O)[C@@H](Cc1ccccc1)NC(=O)C1(NC(=O)c2cc3ccccc3s2)CCCCC1 (stereo not given in full) | Substance-K receptor (Cavia porcellus) | 6.70

I = O=C(NC1(C(=O)N[C@H](Cc2ccccc2)C(=O)NCCCN2CCOCC2)Cc2ccccc2C1)c1cc2ccccc2s1
II = O=C(NC1(C(=O)N[C@H](Cc2ccccc2)C(=O)NCCCN2CCCC2)Cc2ccccc2C1)c1cc2ccccc2s1
stdin: Choose between I and II : whose measured pKi value is numerically larger? Could you answer with the label of the item you picked?
stdout: I
(I: 7.00, II: 6.70)
